Test system: parental HEK cells
Test: HEK parental Agonist Counterscreen Assay (non-transfected cells)
Assay type: cell-based
Settings: HEK Agonist Activity; activity relative to known control
Listed below: Averaged Max % Response (±St. Dev.) values for each entry.
Measured Metric: Averaged Max % Response (±St. Dev.) (%)

[[record]]
compound = "CC(C)(C)CN1CCNC(=O)C1CC(=O)NCCc1cnn(-c2ccccc2)c1 (stereo not drawn) [SR-01000177515]"
reported_measurement = 24.98

[[record]]
compound = "CC(C)CN1CCNC(=O)C1CC(=O)NCCCn1ccc2ccccc21 (stereo not drawn) [SR-01000176150]"
reported_measurement = "−3.65"

[[record]]
compound = "CC(C)C(CC(=O)Cc1cccc2ccccc12)C(=O)Nc1cccc(C#N)c1 (stereo not drawn) [SR-05000022531]"
reported_measurement = 1.20

[[record]]
compound = "Cn1c(CC(=O)NNC(=O)CSc2ccc3ccccc3c2)nc2ccccc21 [SR-01000068729]"
reported_measurement = "−3.41"

[[record]]
compound = "CC(=O)c1cccc(C(C)(C)CC(=O)CNC(=O)c2ccccc2)c1 [SR-01000031674]"
reported_measurement = 35.54

[[record]]
compound = "Cc1onc(-c2ccccc2Cl)c1C(=O)NNC(=O)CSc1ccccc1[N+](=O)[O-] [SR-01000633083]"
reported_measurement = 21.09

[[record]]
compound = "C=C(C)CN(CC)C(=O)CN1C(=O)NC(C)(c2ccc3ccccc3c2)C1=O (stereo not drawn) [SR-01000048841]"
reported_measurement = 15.49

[[record]]
compound = "CCn1c(C)nc2cc(C(=O)NNC(=O)Cc3cccc4ccccc34)ccc21 [SR-01000041378]"
reported_measurement = "−2.48"

[[record]]
compound = "CC1(c2ccc3ccccc3c2)NC(=O)N(CC(=O)Nc2ccccc2Cl)C1=O (stereo not drawn) [SR-01000066950]"
reported_measurement = 2.95

[[record]]
compound = "Cc1ccc(C)c(C(=O)CCC(=O)NNC(=O)c2cc(C)oc2C)c1 [SR-01000069642]"
reported_measurement = 8.55

[[record]]
compound = "O=C(CN1C(=O)NC2(CCc3ccccc3C2)C1=O)Nc1ccccc1Oc1ccccc1 (stereo not drawn) [SR-01000039980]"
reported_measurement = 39.53

[[record]]
compound = "O=C(CSc1ccc(Cl)cc1)NNC(=O)c1ccc(O)cc1 [SR-01000060349]"
reported_measurement = 36.27

[[record]]
compound = "Cc1ccc(CCNC(=O)Cn2cc3c(n2)CCCCC3)cc1 [SR-01000088477]"
reported_measurement = "−0.30"

[[record]]
compound = "Cc1cccc(NC(=O)NCCc2ccc3c(c2)CCCN3C)c1 [SR-01000923247]"
reported_measurement = 20.62

[[record]]
compound = "COc1cc(OC)cc(-c2nnc(NC(=O)Cc3cccc4ccccc34)o2)c1 [SR-01000012205]"
reported_measurement = 1.53

[[record]]
compound = "O=C(CCC(=O)c1ccco1)NNC(=O)CN1CCCc2ccccc21 [SR-01000068721]"
reported_measurement = 8.82

[[record]]
compound = "Cc1cc(C(=O)NNC(=O)CNC(=O)Cc2cccc3ccccc23)c(C)o1 [SR-01000068718]"
reported_measurement = 20.24

[[record]]
compound = "O=C(CCc1nc2ccccc2n1-c1ccccc1)NCCc1ccccc1 [SR-01000535824]"
reported_measurement = 34.71

